These entries and their values trace back to the supplement of paper PMC11208160.

recombinant UMI read abundance (log10) overview
- TEST_PROTOCOL: recombinant UMI read abundance after kanamycin selection (control-corrected) (log10(CPM+1)); higher = more efficient recombination; extreme values may be limits of the assay; sequences stand for … in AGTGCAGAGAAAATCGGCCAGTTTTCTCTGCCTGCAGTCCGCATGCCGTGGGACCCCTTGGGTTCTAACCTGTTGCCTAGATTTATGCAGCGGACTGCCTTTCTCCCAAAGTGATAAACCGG…AGGTTGGTTTCACT; site = the 11-nt donor;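 note: IS621 bridge recombinase in Escherichia coli cells against a fixed T5 target plasmid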
No unit in the answer, only the number.

Known results for sequences:
> print(dat)
                             entry.sequence  observed.measurement
1  TATTTGTCATGGACCGGTTTTCCCGGTAATCCGTATTTGTG (site TATTTGCCTCA)                0.0214
2  CAGTCGACATGGACCGGTTTTCCCGGTAATCCGTATTTGGA (site CAGTCGACTTC)                0.0121
3  TGGAATCCATGGACCGGTTTTCCCGGTAATCCGTATTTGTT (site TGGAATCCTAA)                     0
4  CGAGAACCATGGACCGGTTTTCCCGGTAATCCGTATTTGAT (site CGTGAACCTAT)                     0
5  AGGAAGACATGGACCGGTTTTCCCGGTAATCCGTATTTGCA (site AGGCATACTTG)                     0

Prompt line: # lookup: recombinant UMI read abundance (log10) of TAGCGCGCATGGACCGGTTTTCCCGGTAATCCGTATTTGAC (site TAGCGCGCTGT)
Response line: 2.03

Prompt line: What does the data say about its recombinant UMI read abundance (log10)? Entry: GGAGTTGCATGGACCGGTTTTCCCGGTAATCCGTATTTGGT (site GGAGTCGCTAC)
Response line: 1.05

Prompt line: // returns reported recombinant UMI read abundance (log10) for input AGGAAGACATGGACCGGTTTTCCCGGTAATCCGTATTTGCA (site AGCAAGACTTC)
Response line: 0.00298

Prompt line: What value of measured recombinant UMI read abundance (log10) is listed for AGCCGTCCATGGACCGGTTTTCCCGGTAATCCGTATTTGAT (site AACCGTCCTAT) ?
Response line: 0.00909
